Hey, just so you know, these numbers are from ChEMBL document CHEMBL5385848.

- Tested on: HeLa
- MEASUREMENT_NOTES: Cytotoxicity against TrxR1 knockdown human HeLa cells incubated for 24 hrs by CCK-8 assay (reference value: 13.79 +/- 2 uM)
- Type: functional, cell-based
pIC50: −log10 of the molar value.
MEASUREMENT_LABEL: pIC50

• O=C(Cc1ccc(O)cc1)Nc1nnc(CCCNc2nonc2/C(=N\O)Nc2ccc(F)c(Br)c2)s1 = 5.14

====

- SYSTEM_NAME: Tryptophan 2,3-dioxygenase (Homo sapiens)
- Sequence (P48775 whole entry): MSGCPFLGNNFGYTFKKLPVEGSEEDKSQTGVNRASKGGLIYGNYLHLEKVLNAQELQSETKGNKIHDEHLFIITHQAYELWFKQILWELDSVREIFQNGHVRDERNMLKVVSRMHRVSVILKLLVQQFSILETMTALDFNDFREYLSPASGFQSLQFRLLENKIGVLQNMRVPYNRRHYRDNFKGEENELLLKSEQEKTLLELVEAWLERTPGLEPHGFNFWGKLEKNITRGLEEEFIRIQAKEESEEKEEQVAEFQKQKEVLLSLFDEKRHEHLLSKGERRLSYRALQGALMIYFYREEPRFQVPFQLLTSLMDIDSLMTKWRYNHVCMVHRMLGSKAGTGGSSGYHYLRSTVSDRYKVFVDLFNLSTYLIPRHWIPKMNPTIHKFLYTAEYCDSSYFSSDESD
MEASUREMENT_LABEL: IC50

• O=C(Cc1ccc(O)cc1)Nc1nnc(CCCNc2nonc2/C(=N\O)Nc2ccc(F)c(Br)c2)s1 = 54.2 µM
